target: GABA-A receptor; anion channel; experiment: Modulation of GABAA receptor in electrically stimulated Sprague-Dawley rat dentate gyrus hippocampal granule neurons assessed as potentiation of GABA induced IPSC amplitude at holding potential of -65 mV by whole-cell patch-clamp method
parameter measured: EC50 (µM)
Give bare numbers, in µM.

Exercise: Fill in: EC50 of CCCCCCCCCCCCCCCCCCCCCOC(=O)/C=C/c1ccc(O)c(OC)c1 is ___
Solution: 7.9

====

target: GABA-A receptor; anion channel (Rattus norvegicus) (UniProt O09028+P15431+P18506+P18508+P19969+P20236+P23574+P23576+P28471+P28473+P30191+P62813+P63079+P63138+Q91ZM7+Q9ES14); experiment: Modulation of GABAA receptor in electrically stimulated Sprague-Dawley rat dentate gyrus hippocampal granule neurons assessed as decrease in GABA induced IPSC amplitude at 10 uM at holding potential of -65 mV by whole-cell patch-clamp method relative to control; assay type: protein-complex assay
For each record, write down the corresponding inhibition.

// below: answered molecules
[
  {
    "smiles record": "CCCCCCCCCCCCCCCCCCCOC(=O)/C=C/c1ccc(O)c(OC)c1",
    "inhibition": "36.5%"
  },
  {
    "smiles record": "CCCCCCCCCCCCCCCCCCOC(=O)/C=C/c1ccc(O)c(OC)c1",
    "inhibition": "35.8%"
  },
  {
    "smiles record": "CC1=C(C)C(=O)O[C@@H]([C@@](C)(O)[C@H]2CC[C@H]3[C@@H]4[C@@H]5O[C@@H]5[C@@]5(O)CC=CC(=O)[C@]5(C)[C@H]4CC[C@]23C)C1",
    "inhibition": "20.8%"
  }
]

Here is the next item to consider.
Exercise: Please report the recorded inhibition for CC1=C(C)C(=O)O[C@@H]([C@](C)(O)[C@H]2CC[C@H]3[C@@H]4C=CC5=CC=CC(=O)[C@]5(C)[C@H]4CC[C@]23C)C1 .
Solution: 28.6%
